Hello, the source for this data is ChEMBL document CHEMBL3286321, in case you need it.

# protocol.details: Selectivity index, ratio of IC50 for HEK293 cells to IC50 for Trypanosoma brucei brucei 427
# Type: toxicity, cell-based
# reported.conditions: human, read-out: Ratio IC50
Label scheme for selectivity ratio: lower than 10 is FALSE, 10 and above is TRUE.

>>> assigned_category("Cc1ccc(S(=O)(=O)N2CCCc3ccc(NS(=O)(=O)c4cccs4)cc32)cc1")
"FALSE"
>>> assigned_category("CCS(=O)(=O)N1CCCc2ccc(NS(=O)(=O)c3ccc(F)cc3)cc21")
"TRUE"
>>> assigned_category("CCS(=O)(=O)N1CCCc2ccc(NS(=O)(=O)c3ccccc3F)cc21")
"TRUE"
>>> assigned_category("CCCS(=O)(=O)N1CCCc2ccc(NS(=O)(=O)c3ccc(C)cc3C)cc21")
"TRUE"
>>> assigned_category("CCS(=O)(=O)N1CCCc2ccc(NS(=O)(=O)c3ccc(Br)cc3F)cc21")
"FALSE"
>>> assigned_category("CCS(=O)(=O)N1CCCc2ccc(NS(=O)(=O)c3ccc(Br)s3)cc21")
"FALSE"
>>> assigned_category("CCS(=O)(=O)N1CCCc2ccc(NS(=O)(=O)c3cccc(F)c3)cc21")
"TRUE"
>>> assigned_category("CCCS(=O)(=O)N1CCCc2ccc(NS(=O)(=O)c3ccc(C)cc3)cc21")
"TRUE"
>>> assigned_category("CCCS(=O)(=O)N1CCCc2ccc(NS(=O)(=O)c3ccc(-c4ccccc4)cc3)cc21")
"TRUE"
>>> assigned_category("Cc1ccc(S(=O)(=O)Nc2ccc3c(c2)N(S(=O)(=O)c2cccs2)CCC3)cc1")
"FALSE"
>>> assigned_category("CCS(=O)(=O)N1CCCc2ccc(NS(=O)(=O)c3ccc(Cl)s3)cc21")
"FALSE"
>>> assigned_category("CCS(=O)(=O)N1CCCc2ccc(NS(=O)(=O)c3cccs3)cc21")
"TRUE"
>>> assigned_category("Cc1ccc(S(=O)(=O)Nc2ccc3c(c2)N(S(=O)(=O)c2ccc(C)cc2)CCC3)cc1")
"FALSE"
>>> assigned_category("CCCS(=O)(=O)N1CCCc2ccc(NS(=O)(=O)c3c(C)c(C)c(C)c(C)c3C)cc21")
"TRUE"
>>> assigned_category("CCCS(=O)(=O)N1CCCc2ccc(NS(=O)(=O)c3ccccc3F)cc21")
"TRUE"
>>> assigned_category("CCCS(=O)(=O)N1CCCc2ccc(NS(=O)(=O)c3ccc(C(C)C)cc3)cc21")
"FALSE"
>>> assigned_category("CCS(=O)(=O)N1CCCc2ccc(NS(=O)(=O)c3ccc(C)cc3)cc21")
"TRUE"
